Test system: SS cells
procedure.text: In vitro RBC anti-sickling (morphological) study with SS cells
Assay type: cell-based, human
experimental.conditions: Homo sapiens; 1.0 mM; SS cells, 1 h air then 4% O2, 37° C., 5 h; read-out: Inhibition of sickled cells
Kindly return class 1 if reported inhibition at 1000 µM is no lower than 20%; return class 0 if it is lower.

Observe how each entry below is paired with its result.
compound: COc1ccc(OCc2cccc(CO)n2)c(C=O)c1
measured.target: SS cells
answer.label: class 1
--
compound: COc1ccc(C=O)c(OCc2cccc(CO)n2)c1
measured.target: SS cells
answer.label: class 1
--
compound: O=Cc1ccc(CO)o1 [Compound 5HMF, 5-(hydroxymethyl) furfural, reference compound]
measured.target: SS cells
answer.label: class 0

Could you now consider this next compound?
Lookup: Hi team, for `COc1ccc(OCc2cccc(CO[N+](=O)[O-])n2)c(C=O)c1` , is the recorded inhibition at 1000 µM at or above 20%?
Found: class 1

----------
measured.target: Hb (Homo sapiens, UniProt P68871+P69905)
Construct: normal whole blood (AA); from tissue; host or cells: normal whole blood (AA), red blood cells
Sequence (P69905 2-142 limits assumed): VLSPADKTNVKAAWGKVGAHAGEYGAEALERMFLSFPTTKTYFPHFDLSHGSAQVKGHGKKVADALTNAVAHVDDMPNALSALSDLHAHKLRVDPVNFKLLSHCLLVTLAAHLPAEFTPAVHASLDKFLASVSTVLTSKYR
Sequence (P68871 2-147 limits assumed): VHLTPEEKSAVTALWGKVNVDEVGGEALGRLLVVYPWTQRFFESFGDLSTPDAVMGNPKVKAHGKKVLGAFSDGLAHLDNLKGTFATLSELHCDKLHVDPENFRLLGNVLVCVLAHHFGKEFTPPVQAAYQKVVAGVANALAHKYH
procedure.text: Oxygen equilibrium curve (OEC) study with normal whole blood (AA)
Type: cell-based
experimental.conditions: 2 mM compound, 1.5 h incubation, versus DMSO control
Mark satisfied for reported ΔP50 of -4 mmHg or greater; mark not satisfied for anything smaller.

molecule: COc1ccc(OCc2cccc(CO[N+](=O)[O-])n2)c(C=O)c1 [TD-7-1]
measured.target: Hb (Homo sapiens, UniProt P68871+P69905)
answer.label: not satisfied
//
molecule: COc1ccc(C=O)cc1OCc1cccc(CO[N+](=O)[O-])n1 [TD-8-1]
measured.target: Hb (Homo sapiens, UniProt P68871+P69905)
answer.label: satisfied

Lookup: Is it the case that COc1ccc(C=O)c(OCc2cccc(CO)n2)c1 [TD-9] has ΔP50 reaching or exceeding -4 mmHg?
Found: not satisfied

Lookup: Answer whether ΔP50 of O=Cc1ccc(CO)o1 [Compound 5HMF, 5-(hydroxymethyl) furfural, reference compound] is greater than or equal to -4 mmHg.
Found: not satisfied

Lookup: Check if ΔP50 >= -4 mmHg (inclusive). Item: COc1ccc(OCc2cccc(CO)n2)c(C=O)c1 [TD-7]
Found: not satisfied

Lookup: Decide: ΔP50 of COc1ccc(C=O)cc1OCc1cccc(CO)n1 [TD-8] >= -4 mmHg?
Found: not satisfied

Lookup: Decide: ΔP50 of COc1ccc(C=O)c(OCc2cccc(CO[N+](=O)[O-])n2)c1 [TD-9-1] >= -4 mmHg?
Found: satisfied

----------
N (Hill coefficient) overview
measured.target: Hb (Homo sapiens, UniProt P68871+P69905)
Construct: normal whole blood (AA); from tissue; host or cells: normal whole blood (AA), red blood cells
procedure.text: Oxygen equilibrium curve (OEC) study with normal whole blood (AA)
Type: cell-based
experimental.conditions: 2 mM compound, 1.5 h incubation

Worked set:
input.smiles: COc1ccc(OCc2cccc(CO[N+](=O)[O-])n2)c(C=O)c1
property.measured: N (Hill coefficient)
measured.value: 1.7 ± 0.1^c†

input.smiles: O=Cc1ccc(CO[N+](=O)[O-])o1
property.measured: N (Hill coefficient)
measured.value: 1.9 ± 0.1^c†

// below: N (Hill coefficient) requested for another compound
Lookup: Item under review: `COc1ccc(C=O)cc1OCc1cccc(CO[N+](=O)[O-])n1` . Reported N (Hill coefficient)?
Found: 2.1^d†
